target: Progesterone receptor (Homo sapiens) (UniProt P06401); experiment: qHTS assay to identify small molecule antagonists of the progesterone receptor (PR) signaling pathway (AID 1346795); conditions: PR-UAS-bla HEK293T, beta-lactamase FRET ratio, 16 h; series mostly up to 92.4 µM
Sequence (P06401 whole entry, looked up): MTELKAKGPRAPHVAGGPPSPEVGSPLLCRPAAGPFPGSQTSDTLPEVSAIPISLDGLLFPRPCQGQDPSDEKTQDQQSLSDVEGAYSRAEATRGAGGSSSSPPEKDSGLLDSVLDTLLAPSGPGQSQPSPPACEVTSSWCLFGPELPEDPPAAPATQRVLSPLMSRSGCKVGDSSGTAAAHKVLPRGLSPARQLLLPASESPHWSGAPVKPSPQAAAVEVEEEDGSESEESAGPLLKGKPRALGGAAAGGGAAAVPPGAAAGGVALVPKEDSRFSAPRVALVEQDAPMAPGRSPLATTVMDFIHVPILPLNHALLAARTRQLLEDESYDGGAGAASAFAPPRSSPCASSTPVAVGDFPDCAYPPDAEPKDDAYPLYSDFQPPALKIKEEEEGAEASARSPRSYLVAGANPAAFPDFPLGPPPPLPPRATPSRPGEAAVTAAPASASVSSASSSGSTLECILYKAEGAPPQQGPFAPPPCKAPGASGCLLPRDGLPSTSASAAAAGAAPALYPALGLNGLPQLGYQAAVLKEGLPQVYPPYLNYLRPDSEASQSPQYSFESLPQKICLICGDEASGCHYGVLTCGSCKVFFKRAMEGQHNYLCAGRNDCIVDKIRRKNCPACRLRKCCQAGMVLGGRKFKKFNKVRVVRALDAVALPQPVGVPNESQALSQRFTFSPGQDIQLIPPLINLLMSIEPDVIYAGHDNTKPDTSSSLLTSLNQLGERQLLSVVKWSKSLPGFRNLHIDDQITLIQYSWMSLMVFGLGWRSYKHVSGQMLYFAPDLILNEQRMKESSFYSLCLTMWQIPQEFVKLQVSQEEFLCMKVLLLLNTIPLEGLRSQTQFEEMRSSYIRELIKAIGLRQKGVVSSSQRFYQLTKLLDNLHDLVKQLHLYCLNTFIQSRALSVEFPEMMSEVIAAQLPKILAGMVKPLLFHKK
Results filed as inconclusive are left out. Calls of active or inactive are those of the source. The call rests on the fitted dose curve; in most records, active means well fitted inhibition curve with a large enough effect in the signal ratio in the repeat runs (not every such curve was filed as active); inconclusive means weak or mixed curves; inactive means flat fitted curve, though single readings scatter; the % refers to the signal ratio.
Return exactly one item of active, inactive

compound	cat
CC(=O)O[C@]1(C(C)=O)CC[C@H]2[C@@H]3C[C@H](C)C4=CC(=O)CC[C@]4(C)[C@H]3CC[C@@]21C	inactive
Cc1scc2c1N(C(=O)CN1CCN(C)CC1)c1ccccc1NC2=O	inactive
CC(=O)OCCOCCOCCOC(C)=O	inactive

// param item: CCn1c2ccccc2c2cc(N)ccc21 ; yields the recorded call active

# outcome recorded in this test, key = O=C1NCC2(CCN(CCc3ccccc3)CC2)O1 inactive

Which result was noted for this compound in the test: O=C(O)CP(=O)(O)O inactive

Please share the test call associated with C=CS(=O)(=O)O . inactive

Answer briefly: the call reported for OCC(CO)N[C@H]1C[C@](O)(CO)[C@@H](O)[C@H](O)[C@H]1O in this assay. inactive

Test call for this compound, please: CNC1(C)C2CCC(C2)C1(C)C (centres undefined) inactive

* * *

experiment: Caspase-3/7 induction in CHO-K1 cells by small molecules, qHTS assay (AID 1346980); conditions: CHO-K1 caspase-3/7 induction, Caspase-Glo luminescence, 17 h; series mostly up to 92.4 µM; further: on the % scale 0 is the no-effect control and ±100 the full control effect; nearly all actives have a fitted effect of over 15% in size
Calls of active or inactive are those of the source. The call rests on the fitted dose curve; in most records, active means well fitted activation curve with a large enough effect in the repeat runs; inconclusive means weak or mixed curves; inactive means flat fitted curve, though single readings scatter.
measuredParameter: outcome

Sample records with outcome:
compound	measuredParameter	result
CC1COc2c(N3CCN(C)CC3)c(F)cc3c(=O)c(C(=O)O)cn1c23 (configuration not stated)	outcome	inactive
c1ccc2c(c1)-c1cccc3c1c-2cc1ccccc13	outcome	inactive
CCC[C@H](N[C@@H](C)C(=O)N1[C@H](C(=O)O)C[C@@H]2CCCC[C@@H]21)C(=O)OCC	outcome	inactive
CCN(CC)c1ccc2c(C)cc(=O)oc2c1	outcome	inactive

// each compound listed below needs its outcome
1. CC(=O)CC(C)=O
2. Cc1ccc(-c2cc(C(F)(F)F)nn2-c2ccc(S(N)(=O)=O)cc2)cc1
3. CC(=O)CC(=O)Nc1ccc2[nH]c(=O)[nH]c2c1
4. CC[C@]1(O)C[C@@H]2CN(CCc3c([nH]c4ccccc34)[C@@](C(=O)OC)(c3cc4c(cc3OC)N(C)[C@H]3[C@@](O)(C(=O)OC)[C@H](OC(C)=O)[C@]5(CC)C=CCN6CC[C@]43[C@@H]65)C2)C1
5. COC(c1ccccc1)(c1ccccc1)[C@H](Oc1nc(C)cc(C)n1)C(=O)O
6. O=C1NCC2(CCN(CCc3ccccc3)CC2)O1
7. CCCCN(CCO)CCCC

1: inactive; 2: inactive; 3: inactive; 4: inactive; 5: inactive; 6: inactive; 7: inactive

Item under review: CO[Si](OC)(OC)c1ccccc1 . Reported outcome? inactive

* * *

test: qHTS assay to identify small molecule agonists of the AP-1 signaling pathway (AID 1159526); details: ME-180 (cervical carcinoma) AP-1-bla reporter, beta-lactamase FRET ratio, 5 h; series mostly up to 76.8 µM
Inconclusive results are not listed. The source made the active and inactive calls. The call rests on the fitted dose curve.
# valid calls are active, inactive; nothing else

Examples with answers:
molecule	cat
CC(C)(C)c1ccccc1	inactive
CC[C@]1(O)C[C@@H]2CN(CCc3c([nH]c4ccccc34)[C@@](C(=O)OC)(c3cc4c(cc3OC)N(C)[C@H]3[C@@](O)(C(=O)OC)[C@H](OC(C)=O)[C@]5(CC)C=CCN6CC[C@]43[C@@H]65)C2)C1	active
CCN(CC)C(=O)Nc1ccc(OCC(O)CNC(C)(C)C)c(C(C)=O)c1 (stereo unspecified)	inactive

Tell me the assay call for CCn1c2ccccc2c2cc(N)ccc21 please. inactive

I'd appreciate the recorded outcome for Cc1cc(C(C)(C)C)c(O)c(C(C)(C)C)c1 from this test. inactive

Dear all, I need the recorded test outcome for CC(C)(O)CCC(C)(C)O , thank you. inactive

* * *

biological target: Peroxisome proliferator-activated receptor gamma (Homo sapiens) (UniProt P37231); test: qHTS assay to identify small molecule agonists of the peroxisome proliferator-activated receptor gamma (PPARg) signaling pathway (AID 743094); conditions: HEK293H PPARg-UAS-bla, beta-lactamase FRET ratio, 17 h; series mostly up to 57 µM; further: on the % scale 0 is the no-effect control and ±100 the full control effect
Sequence (P37231 whole entry, looked up): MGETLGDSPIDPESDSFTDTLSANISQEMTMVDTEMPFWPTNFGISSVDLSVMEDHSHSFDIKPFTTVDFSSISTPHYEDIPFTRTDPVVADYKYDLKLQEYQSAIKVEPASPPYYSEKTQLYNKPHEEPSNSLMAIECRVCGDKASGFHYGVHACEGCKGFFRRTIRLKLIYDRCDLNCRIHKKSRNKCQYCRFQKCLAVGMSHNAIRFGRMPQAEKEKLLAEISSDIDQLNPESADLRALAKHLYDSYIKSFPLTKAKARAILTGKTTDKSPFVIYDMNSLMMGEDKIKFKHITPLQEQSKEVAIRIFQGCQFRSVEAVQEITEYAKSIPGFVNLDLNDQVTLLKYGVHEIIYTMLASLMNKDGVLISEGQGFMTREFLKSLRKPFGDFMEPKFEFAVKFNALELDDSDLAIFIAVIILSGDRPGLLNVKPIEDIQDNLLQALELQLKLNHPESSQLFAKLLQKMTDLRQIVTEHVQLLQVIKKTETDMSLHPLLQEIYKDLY
Results filed as inconclusive are left out. The source made the active and inactive calls. The call rests on the fitted dose curve; in most records, active means well fitted activation curve with a large enough effect in the signal ratio in the repeat runs (not every such curve was filed as active); inconclusive means weak or mixed curves, or effect the other way; inactive means no such curve, though single readings can be large or run the other way; the % refers to the signal ratio.
measuredParameter: outcome

The following compounds have reported results that may help.
compound	outcome
CC(C(O)c1ccc(O)cc1)N1CCC(Cc2ccccc2)CC1 (stereo not drawn)	inactive
CCCC(=O)c1ccccc1	inactive
C=C(C)C1CC=C(C)C(OC(C)=O)C1 (stereo not drawn)	inactive
CCc1ccc(C(c2ccc(CC)cc2)C(Cl)Cl)cc1	inactive
Cc1cc(C(C)(C)C)c(O)c(C(C)(C)C)c1	inactive
Nc1nc2ccccc2[nH]1	inactive

Record outcome per entry; entries follow.
1. C=CC(=O)OCCCCCCCC
2. NNCCc1ccccc1

inactive
inactive

* * *

molecular target: Cytochrome P450 2D6 (Homo sapiens); test: Cytochrome P450 Family 2 Subfamily D Member 6 (CYP2D6) small molecule antagonists: luciferase reporter qHTS assay (AID 1671196); settings: P450-Glo CYP2D6 enzyme assay, luciferin luminescence, 1 h; series mostly up to 115 µM; further: on the % scale 0 is the no-effect control and ±100 the full control effect; nearly all actives have a fitted effect of over 50% in size
Inconclusive results are not listed. Active and inactive are the calls of the source. Calls come from the whole dose curve; as a rule, active = well fitted inhibition curve with a large enough effect in the repeat runs; inconclusive = weak or mixed curves; inactive = no such curve, though single readings can be large or run the other way.
measuredParameter: outcome

CCc1ccc(C(c2ccc(CC)cc2)C(Cl)Cl)cc1 inactive
CC(=O)OCCOCCOCCOC(C)=O inactive
CC(C)C(=O)c1c(C(C)C)nn2ccccc12 inactive

* * *

biological target: Voltage-gated inwardly rectifying potassium channel KCNH2 (Homo sapiens) (UniProt Q12809); assay: Human Ether-a-go-go-Related Gene (hERG) channel small molecule antagonists: fluorescence cell-based qHTS assay (AID 1671200); conditions: hERG-U2OS cells, FluxOR thallium flux fluorescence; series mostly up to 76.8 µM; further: nearly all actives have a fitted effect of over 50% in size
Sequence (Q12809 whole entry, looked up): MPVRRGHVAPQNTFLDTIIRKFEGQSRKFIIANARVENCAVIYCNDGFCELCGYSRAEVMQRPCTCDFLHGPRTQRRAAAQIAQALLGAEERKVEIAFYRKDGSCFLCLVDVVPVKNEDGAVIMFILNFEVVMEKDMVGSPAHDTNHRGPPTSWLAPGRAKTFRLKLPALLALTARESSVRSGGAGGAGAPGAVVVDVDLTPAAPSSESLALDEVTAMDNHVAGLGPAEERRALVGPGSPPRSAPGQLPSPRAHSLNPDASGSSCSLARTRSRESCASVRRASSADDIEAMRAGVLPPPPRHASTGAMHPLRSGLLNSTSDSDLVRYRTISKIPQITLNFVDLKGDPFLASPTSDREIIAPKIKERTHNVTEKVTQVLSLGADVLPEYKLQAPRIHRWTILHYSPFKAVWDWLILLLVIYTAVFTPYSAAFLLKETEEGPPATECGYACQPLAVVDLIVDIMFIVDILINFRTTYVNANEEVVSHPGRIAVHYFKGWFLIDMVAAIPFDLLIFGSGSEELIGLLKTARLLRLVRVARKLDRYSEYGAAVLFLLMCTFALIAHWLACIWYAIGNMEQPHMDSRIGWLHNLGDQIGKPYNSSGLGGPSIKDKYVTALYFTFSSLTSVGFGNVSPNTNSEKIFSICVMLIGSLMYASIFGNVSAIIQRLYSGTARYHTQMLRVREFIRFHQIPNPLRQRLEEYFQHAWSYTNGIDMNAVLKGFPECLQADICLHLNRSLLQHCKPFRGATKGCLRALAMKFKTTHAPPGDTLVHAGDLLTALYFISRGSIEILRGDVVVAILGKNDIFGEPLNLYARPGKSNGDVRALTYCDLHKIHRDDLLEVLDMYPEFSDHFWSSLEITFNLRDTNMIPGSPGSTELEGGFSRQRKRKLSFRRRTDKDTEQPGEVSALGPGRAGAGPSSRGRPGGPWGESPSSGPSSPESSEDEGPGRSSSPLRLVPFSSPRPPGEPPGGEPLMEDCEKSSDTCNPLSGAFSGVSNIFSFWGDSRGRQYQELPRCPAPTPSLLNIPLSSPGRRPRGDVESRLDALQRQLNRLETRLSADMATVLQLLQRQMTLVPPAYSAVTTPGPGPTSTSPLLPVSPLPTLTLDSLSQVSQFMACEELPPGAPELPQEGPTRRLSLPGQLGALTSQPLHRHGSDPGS
Records with an inconclusive call do not appear. Active and inactive are the calls of the source. Calls come from the whole dose curve; as a rule, active = well fitted inhibition curve with a large enough effect in the repeat runs; inconclusive = weak or mixed curves; inactive = flat fitted curve, though single readings scatter.
Give your call using only these classes: class 1 for active, class 0 for inactive

// known answers, use as guide
compound	cat
O=Nc1ccc(Nc2ccccc2)cc1	class 0
COc1ccc(COC(C)=O)cc1	class 0
CCN(CC)C(=O)Nc1ccc(OCC(O)CNC(C)(C)C)c(C(C)=O)c1 (configuration not stated)	class 0
COc1cc(C(=S)N2CCOCC2)ccc1O	class 0
CCCCC(CC)COC(=O)CC(C(=O)OCC(CC)CCCC)S(=O)(=O)O (configuration not stated)	class 0

Recorded test call requested for CC(C)CCCCCCc1ccc(O)cc1 class 1

Given O=C1Nc2ccccc2C1(c1ccc(O)cc1)c1ccc(O)cc1 , state the outcome it received in this test. class 0

* * *

test: qHTS assay to identify small molecule agonists of the androgen receptor (AR) signaling pathway in the presence of an antagonist - cell viability counter screen (AID 1259379); conditions: MDA-kb2 viability, CellTiter-Fluor, 16 h; series mostly up to 92.4 µM; further: nearly all actives have a fitted effect of over 25% in size
Inconclusive results are not listed. Active and inactive are the calls of the source. The call rests on the fitted dose curve; in most records, active means well fitted cell-killing curve with a large enough effect in the repeat runs; inconclusive means weak or mixed curves, or effect the other way; inactive means flat fitted curve, though single readings scatter. Starred links: 1 amine or outer side, 2 acyl side, 3 side chain; linkers in the order of their positions; H or OH if unused. Positions of bridges follow the written chain, without caps; N, C: chain ends. Non-standard residues stand in square brackets, D forms with d. Residues, ends and D or L forms follow the SMILES beside them. Chains are numbered I, II in the order given. Actinocin(9to1) = Cc1c2oc3c(C)ccc(C(=O)[*:1])c3nc-2c(C(=O)[*:2])c(N)c1=O; NMeV = CN[C@H](C(=O)O)C(C)C; Sar = CNCC(=O)O
Bench note: report the call from 1 = active, -1 = inactive

Consider the worked cases shown below.
molecule	cat
CC(C)CCOCc1ccccc1	-1
C[N+]1([O-])CCOCC1	-1
Cc1cccc2n[nH]nc12	-1
CCN(CC)C(=O)Nc1ccc(OCC(O)CNC(C)(C)C)c(C(C)=O)c1 (stereo not given)	-1
CC(C)(C)c1ccc(O)c(C(C)(C)C)c1	-1
Cc1c2oc3c(C)ccc(C(=O)N[C@@H]4C(=O)N[C@H](C(C)C)C(=O)N5CCC[C@H]5C(=O)N(C)CC(=O)N(C)[C@@H](C(C)C)C(=O)O[C@@H]4C)c3nc-2c(C(=O)N[C@@H]2C(=O)N[C@H](C(C)C)C(=O)N3CCC[C@H]3C(=O)N(C)CC(=O)N(C)[C@@H](C(C)C)C(=O)O[C@@H]2C)c(N)c1=O (I: T[dV]P[Sar][NMeV] / II: T[dV]P[Sar][NMeV]; ester I:1-I:C, II:1-II:C; linker I:N-II:N via Actinocin(9to1))	1
CC(C)(C)c1ccccc1	-1
CC(=O)OCCOCCOCCOC(C)=O	-1
CC(C)(C)NC(=O)[C@@H]1CN(Cc2cccnc2)CCN1C[C@@H](O)C[C@@H](Cc1ccccc1)C(=O)N[C@H]1c2ccccc2C[C@H]1O	-1
O=C1NCC2(CCN(CCc3ccccc3)CC2)O1	-1

Tell me the assay call for CCC(C)(Oc1ccc(C2(c3ccc(OC(C)(CC)C(=O)O)cc3)CCCCC2)cc1)C(=O)O (stereo not given) please. -1

Just curious, what result did CC(C)(c1ccccc1)c1ccc(Nc2ccc(C(C)(C)c3ccccc3)cc2)cc1 get here? -1

I would be grateful if you could indicate the recorded call for CCCOC(=O)c1cc(O)c(O)c(O)c1 . -1

What classification did Cc1occc(=O)c1OC(=O)C(C)C end up with in this test? -1

Field: outcome | Entry: O=C(O)c1cn(-c2ccc(F)cc2)c2cc(N3CCNCC3)c(F)cc2c1=O -1

Test call, this molecule: CC1=CC(=O)c2ccccc2C1=O 1

How was N[C@@H]1CONC1=O classified in this test? -1

# fetch the recorded call for NCCCCCC(=O)O here -1

Name the outcome recorded for c1cc(C(c2ccc(OCC3CO3)cc2)C(c2ccc(OCC3CO3)cc2)c2ccc(OCC3CO3)cc2)ccc1OCC1CO1 (stereo not given) in the assay. -1

Please indicate how the test categorized CCCCC/C=C/CC1CC(=O)OC1=O (stereo not given) . -1

Lab log entry: CCN(CC)c1ccc2c(C)cc(=O)oc2c1 — outcome as called in the assay? -1

This collection of values is drawn from PubChem BioAssay (Tox21).
